The origin of these recorded values is patent US20230056252A1.

# key: entry, value: pKd
- tgt: T1, biotinylated CD3 epsilon:delta heterodimer protein (Amsbio AMS.CDD-H52WO) (Homo sapiens (Human), UniProt P07766 23-126; P04234 22-105)
- T1 construct: also called CD3 heterodimer
- experimental-protocol: BLI (Octet), CD3 on SA sensor, Fab analyte;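 further: biolayer interferometry with biotinylated CD3 epsilon:delta captured on streptavidin sensors, Fab analyte at several concentrations up to 300 nM, 100 s association then 300 s dissociation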
pKd: −log10 of the molar value.

{"columns": ["binder", "pKd"],
 "data": [
  ["huSP34.3.1 Fab-HF (Fab, V domains shown, also called HC3+LC1) VH: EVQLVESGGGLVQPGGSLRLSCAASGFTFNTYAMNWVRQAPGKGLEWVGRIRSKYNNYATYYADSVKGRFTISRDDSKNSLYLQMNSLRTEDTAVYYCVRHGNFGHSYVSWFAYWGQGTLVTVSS VL: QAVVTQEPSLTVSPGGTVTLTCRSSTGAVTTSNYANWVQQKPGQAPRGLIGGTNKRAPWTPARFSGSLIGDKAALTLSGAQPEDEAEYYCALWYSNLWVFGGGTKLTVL", 7.83],
  ["huSP34.2.4 Fab-HF (Fab, V domains shown, also called HC2+LC4) VH: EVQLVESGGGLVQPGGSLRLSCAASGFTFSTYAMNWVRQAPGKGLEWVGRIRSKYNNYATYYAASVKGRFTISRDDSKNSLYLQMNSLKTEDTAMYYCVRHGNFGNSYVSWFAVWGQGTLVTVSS VL: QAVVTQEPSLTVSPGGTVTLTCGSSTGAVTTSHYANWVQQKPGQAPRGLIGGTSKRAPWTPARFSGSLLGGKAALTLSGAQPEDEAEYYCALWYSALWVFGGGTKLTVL", 7.00]
]}
